# Target Under Test: Fyn (Homo sapiens, UniProt P06241)
# Construct: purchased Merck-Millipore
# Sequence (P06241 whole entry, species assumed): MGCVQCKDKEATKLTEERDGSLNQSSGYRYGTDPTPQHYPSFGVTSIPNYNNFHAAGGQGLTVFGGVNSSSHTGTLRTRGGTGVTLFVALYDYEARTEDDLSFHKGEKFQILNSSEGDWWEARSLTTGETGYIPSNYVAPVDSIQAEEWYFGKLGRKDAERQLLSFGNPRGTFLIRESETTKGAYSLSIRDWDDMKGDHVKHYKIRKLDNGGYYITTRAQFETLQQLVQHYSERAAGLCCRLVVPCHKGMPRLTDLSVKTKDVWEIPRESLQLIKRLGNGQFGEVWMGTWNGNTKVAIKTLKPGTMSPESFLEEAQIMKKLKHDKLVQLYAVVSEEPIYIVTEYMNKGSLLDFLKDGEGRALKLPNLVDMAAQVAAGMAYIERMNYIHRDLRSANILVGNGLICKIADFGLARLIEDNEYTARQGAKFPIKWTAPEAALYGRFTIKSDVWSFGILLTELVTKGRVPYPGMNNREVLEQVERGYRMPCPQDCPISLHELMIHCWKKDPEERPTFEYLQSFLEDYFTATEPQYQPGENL
# Assay Info: Fyn enzymatic assay (ADP-Glo kinase assay)
# Format: biochemical
# Conditions Used: 1 µM
// values below are reported inhibition at 1 µM
Measured Property: inhibition at 1 µM

>>> result("Fc1cccc(Nc2nc(C(F)(F)F)nc3c2cnn3CC(Cl)c2ccccc2)c1 (stereo not shown)")
"19%"
>>> result("ClC(Cn1ncc2c(Nc3ccccc3)nc(-c3ccccc3)nc21)c1ccccc1 (stereo not shown)")
"16%"
>>> result("CSc1nc(Nc2ccccc2)c2cnn(CC(Cl)c3ccc(F)cc3)c2n1 (stereo not shown)")
"15%"
>>> result("FC(F)(F)c1nc(Nc2cccc(Cl)c2)c2cnn(CC(Cl)c3ccccc3)c2n1 (stereo not shown)")
"2.5%"
>>> result("Cc1nc(Nc2ccccc2)c2cnn(CC(Cl)c3ccc(Cl)cc3)c2n1 (stereo not shown)")
"24%"
>>> result("CCc1nc(Nc2ccccc2)c2cnn(CC(Cl)c3ccc(Cl)cc3)c2n1 (stereo not shown)")
"48%"
>>> result("CCSc1nc(Nc2ccccc2)c2cnn(CC(Cl)c3ccccc3)c2n1 (stereo not shown)")
"33%"

###

# Target Under Test: Abl (Homo sapiens)
# Construct: purchased Merck-Millipore
# Sequence (P00519 whole entry, species assumed): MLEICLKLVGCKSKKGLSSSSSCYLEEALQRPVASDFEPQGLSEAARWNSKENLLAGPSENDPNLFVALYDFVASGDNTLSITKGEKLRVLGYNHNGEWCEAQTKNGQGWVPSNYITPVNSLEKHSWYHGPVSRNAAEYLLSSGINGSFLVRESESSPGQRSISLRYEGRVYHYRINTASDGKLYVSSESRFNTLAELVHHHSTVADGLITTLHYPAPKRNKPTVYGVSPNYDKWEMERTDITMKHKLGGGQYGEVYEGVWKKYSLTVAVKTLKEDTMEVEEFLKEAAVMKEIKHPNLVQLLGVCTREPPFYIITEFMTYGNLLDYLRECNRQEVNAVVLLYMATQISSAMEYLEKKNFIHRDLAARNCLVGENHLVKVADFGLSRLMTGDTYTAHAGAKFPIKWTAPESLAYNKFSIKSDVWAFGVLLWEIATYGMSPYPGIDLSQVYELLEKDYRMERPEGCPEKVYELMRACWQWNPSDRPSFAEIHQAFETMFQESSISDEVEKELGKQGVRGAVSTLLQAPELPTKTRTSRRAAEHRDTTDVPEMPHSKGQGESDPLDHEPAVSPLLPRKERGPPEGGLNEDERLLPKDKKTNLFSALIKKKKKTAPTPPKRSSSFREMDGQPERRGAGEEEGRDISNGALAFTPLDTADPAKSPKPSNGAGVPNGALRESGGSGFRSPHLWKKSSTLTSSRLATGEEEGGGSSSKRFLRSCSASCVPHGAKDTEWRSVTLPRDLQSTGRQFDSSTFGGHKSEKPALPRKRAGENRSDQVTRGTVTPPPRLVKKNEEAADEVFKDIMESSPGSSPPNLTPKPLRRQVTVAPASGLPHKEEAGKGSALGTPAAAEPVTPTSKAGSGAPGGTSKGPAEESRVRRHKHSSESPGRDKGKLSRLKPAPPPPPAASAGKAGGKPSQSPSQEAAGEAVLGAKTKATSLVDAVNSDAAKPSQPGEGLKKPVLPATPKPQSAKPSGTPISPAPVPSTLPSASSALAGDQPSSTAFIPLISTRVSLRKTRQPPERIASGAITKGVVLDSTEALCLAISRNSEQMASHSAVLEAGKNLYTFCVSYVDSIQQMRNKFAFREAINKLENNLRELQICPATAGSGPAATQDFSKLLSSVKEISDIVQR
# Assay Info: Abl enzymatic assay (ADP-Glo kinase assay)
# Assay type: biochemical
# Conditions Used: 1 µM
Measured Property: inhibition at 1 µM (%)

>>> numeric_value("Cc1nc(Nc2ccccc2)c2cnn(CC(Cl)c3ccc(Cl)cc3)c2n1 (stereo not drawn) [2q]")
20
>>> numeric_value("Cl.Oc1cc(Nc2nc(SCCN3CCOCC3)nc3c2cnn3CC(Cl)c2ccccc2)ccc1F (stereo not drawn) [2f]")
3
>>> numeric_value("CCSc1nc(Nc2ccccc2)c2cnn(CC(Cl)c3ccccc3)c2n1 (stereo not drawn) [2c]")
18
>>> numeric_value("Fc1cccc(Nc2nc(C(F)(F)F)nc3c2cnn3CC(Cl)c2ccccc2)c1 (stereo not drawn) [2l]")
40
>>> numeric_value("CCc1nc(Nc2ccccc2)c2cnn(CC(Cl)c3ccccc3)c2n1 (stereo not drawn) [2h]")
34
>>> numeric_value("FC(F)(F)c1nc(Nc2cccc(Cl)c2)c2cnn(CC(Cl)c3ccccc3)c2n1 (stereo not drawn) [2m]")
15
>>> numeric_value("ClC(Cn1ncc2c(Nc3ccccc3)nc(C3CCCCC3)nc21)c1ccccc1 (stereo not drawn) [2j]")
39
>>> numeric_value("Oc1cc(Nc2nc(SCCN3CCOCC3)nc3c2cnn3CC(Cl)c2ccccc2)c(F)cc1F (stereo not drawn) [2g]")
33.5
>>> numeric_value("ClC(Cn1ncc2c(Nc3ccccc3)nc(-c3ccccc3)nc21)c1ccccc1 (stereo not drawn) [2n]")
5

###

# Target Under Test: Src (Homo sapiens)
# Construct: purchased Merck-Millipore
# Sequence (P12931 whole entry, species assumed): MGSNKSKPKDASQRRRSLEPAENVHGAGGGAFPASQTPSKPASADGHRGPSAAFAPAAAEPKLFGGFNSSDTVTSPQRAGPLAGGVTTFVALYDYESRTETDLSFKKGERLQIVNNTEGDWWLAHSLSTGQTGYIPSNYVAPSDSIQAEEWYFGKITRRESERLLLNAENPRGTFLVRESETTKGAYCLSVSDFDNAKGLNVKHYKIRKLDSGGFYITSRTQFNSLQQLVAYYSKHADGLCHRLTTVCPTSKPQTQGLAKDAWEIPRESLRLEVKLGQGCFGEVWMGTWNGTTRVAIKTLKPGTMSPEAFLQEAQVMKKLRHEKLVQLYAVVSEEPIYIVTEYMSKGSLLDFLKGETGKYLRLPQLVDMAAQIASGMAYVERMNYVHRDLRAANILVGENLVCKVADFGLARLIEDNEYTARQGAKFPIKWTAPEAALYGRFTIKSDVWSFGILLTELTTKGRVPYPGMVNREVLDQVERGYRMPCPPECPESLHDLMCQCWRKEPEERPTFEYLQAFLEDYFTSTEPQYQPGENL
# Assay Info: Src enzymatic assay (ADP-Glo kinase assay)
# Type: biochemical
# Conditions Used: 10 µM
The label depends only on inhibition at 10 µM: 1 (yes) if it is at least 30%, 0 (no) if it is smaller.

>>> assigned_label("CC(C)Sc1nc(Nc2cccc(Cl)c2)c2cnn(CC(Cl)c3ccccc3)c2n1 (centres unmarked) [2d]")
"1 (yes)"
>>> assigned_label("CCSc1nc(Nc2ccccc2)c2cnn(CC(Cl)c3ccccc3)c2n1 (centres unmarked) [2c]")
"0 (no)"
>>> assigned_label("CCc1nc(Nc2ccccc2)c2cnn(CC(Cl)c3ccc(Cl)cc3)c2n1 (centres unmarked) [2r]")
"0 (no)"
>>> assigned_label("FC(F)(F)c1nc(Nc2cccc(Cl)c2)c2cnn(CC(Cl)c3ccccc3)c2n1 (centres unmarked) [2m]")
"1 (yes)"
>>> assigned_label("CSc1nc(Nc2ccccc2)c2cnn(CC(Cl)c3ccc(F)cc3)c2n1 (centres unmarked) [2p]")
"1 (yes)"
